These data points were gathered from ChEMBL document CHEMBL1795264.

# Tested on: Nucleic Acid
# procedure.text: Induction of Escherichia coli [5'-32P]-end labeled 158-base pair of pBR322 DNA cleavage at A15 site using bromophenol blue and xylene cyanol FF at 1 to 10 uM after 30 mins by phosphorimager analysis in presence of equimolar Fe2+
# Assay type: nucleic-acid assay
Active and inactive are the calls of the source. No cut-off for these calls is given here.
reported.metric: Activity

| molecular.string | reported.metric | result |
| --- | --- | --- |
| Cc1c(N)nc([C@H](CC(N)=O)NC[C@H](N)C(N)=O)nc1C(=O)N[C@@H](Cc1c[nH]cn1)C(=O)N[C@H](Cc1ccccc1)[C@@H](O)[C@H](C)C(=O)N[C@H](C(=O)NCCc1nc(-c2nc(C(=O)NCCCNCCCCNCCCN)cs2)cs1)[C@@H](C)O | Activity | inactive |
| Cc1c(N)nc([C@H](CC(N)=O)NC[C@H](N)C(N)=O)nc1C(=O)N[C@@H](Cc1c[nH]cn1)C(=O)N[C@H](C)[C@@H](O)[C@H](CC(C)C)C(=O)N[C@H](C(=O)NCCc1nc(-c2nc(C(=O)NCCCNCCCCNCCCN)cs2)cs1)[C@@H](C)O | Activity | inactive |
| Cc1ccccc1C[C@@H](NC(=O)[C@H](Cc1c[nH]cn1)NC(=O)c1nc([C@H](CC(N)=O)NC[C@H](N)C(N)=O)nc(N)c1C)[C@@H](O)[C@H](C)C(=O)N[C@H](C(=O)NCCc1nc(-c2nc(C(=O)NCCCNCCCCNCCCN)cs2)cs1)[C@@H](C)O | Activity | inactive |
| CCCC[C@H](C(=O)N[C@H](C(=O)NCCc1nc(-c2nc(C(=O)NCCCNCCCCNCCCN)cs2)cs1)[C@@H](C)O)[C@H](O)[C@@H](C)NC(=O)[C@H](Cc1c[nH]cn1)NC(=O)c1nc([C@H](CC(N)=O)NC[C@H](N)C(N)=O)nc(N)c1C | Activity | inactive |

====

# Test system: Nucleic Acid
# procedure.text: Induction of Escherichia coli [5'-32P]-end labeled 64-nucleotide hairpin DNA base pair of pBR322 DNA cleavage using bromophenol blue and xylene cyanol FF at 5 to 20 uM after 30 mins by phosphorimager analysis in presence of equimolar Fe2+
# Assay type: nucleic-acid assay
Activity calls are given as the source filed them. The calls are words filed in the database; no cut-off is given here.

| molecular.string | measured.on | Activity |
| --- | --- | --- |
| Cc1c(N)nc([C@H](CC(N)=O)NC[C@H](N)C(N)=O)nc1C(=O)N[C@@H](Cc1c[nH]cn1)C(=O)N[C@H](C)[C@@H](O)[C@H](Cc1ccccc1)C(=O)N[C@H](C(=O)NCCc1nc(-c2nc(C(=O)NCCCNCCCCNCCCN)cs2)cs1)[C@@H](C)O | Nucleic Acid | Active |
| Cc1ccccc1C[C@@H](NC(=O)[C@H](Cc1c[nH]cn1)NC(=O)c1nc([C@H](CC(N)=O)NC[C@H](N)C(N)=O)nc(N)c1C)[C@@H](O)[C@H](C)C(=O)N[C@H](C(=O)NCCc1nc(-c2nc(C(=O)NCCCNCCCCNCCCN)cs2)cs1)[C@@H](C)O | Nucleic Acid | Active |

====

# Test system: Nucleic Acid
# procedure.text: Induction of Escherichia coli [5'-32P]-end labeled 158-base pair of pBR322 DNA cleavage at G12 site using bromophenol blue and xylene cyanol FF at 1 to 10 uM after 30 mins by phosphorimager analysis in presence of equimolar Fe2+
# Type: nucleic-acid assay
Calls of active or inactive are those of the source. No cut-off for these calls is given here.
Pick one: active, inactive

| molecule | measured.on | class |
| --- | --- | --- |
| Cc1ccccc1C[C@@H](NC(=O)[C@H](Cc1c[nH]cn1)NC(=O)c1nc([C@H](CC(N)=O)NC[C@H](N)C(N)=O)nc(N)c1C)[C@@H](O)[C@H](C)C(=O)N[C@H](C(=O)NCCc1nc(-c2nc(C(=O)NCCCNCCCCNCCCN)cs2)cs1)[C@@H](C)O | Nucleic Acid | inactive |
| CC[C@@H](C)C(NC(=O)[C@H](Cc1c[nH]cn1)NC(=O)c1nc([C@H](CC(N)=O)NC[C@H](N)C(N)=O)nc(N)c1C)[C@@H](O)[C@H](C)C(=O)N[C@H](C(=O)NCCc1nc(-c2nc(C(=O)NCCCNCCCCNCCCN)cs2)cs1)[C@@H](C)O (single isomer, unassigned) | Nucleic Acid | active |

*Q* Lab log entry: CCCC[C@H](C(=O)N[C@H](C(=O)NCCc1nc(-c2nc(C(=O)NCCCNCCCCNCCCN)cs2)cs1)[C@@H](C)O)[C@H](O)[C@@H](C)NC(=O)[C@H](Cc1c[nH]cn1)NC(=O)c1nc([C@H](CC(N)=O)NC[C@H](N)C(N)=O)nc(N)c1C — outcome as called in the assay?
*A* inactive

*Q* Tell me the recorded outcome of this test for Cc1c(N)nc([C@H](CC(N)=O)NC[C@H](N)C(N)=O)nc1C(=O)N[C@@H](Cc1c[nH]cn1)C(=O)N[C@H](Cc1ccccc1)[C@@H](O)[C@H](C)C(=O)N[C@H](C(=O)NCCc1nc(-c2nc(C(=O)NCCCNCCCCNCCCN)cs2)cs1)[C@@H](C)O .
*A* inactive

====

# Tested on: Nucleic Acid
# procedure.text: Induction of Escherichia coli [5'-32P]-end labeled 158-base pair of pBR322 DNA cleavage using bromophenol blue and xylene cyanol FF at 1 to 10 uM after 30 mins by phosphorimager analysis in presence of equimolar Fe2+
Calls of active or inactive are those of the source. The calls are words filed in the database; no cut-off is given here.

| molecular.string | measured.on | Activity |
| --- | --- | --- |
| Cc1ccccc1C[C@@H](NC(=O)[C@H](Cc1c[nH]cn1)NC(=O)c1nc([C@H](CC(N)=O)NC[C@H](N)C(N)=O)nc(N)c1C)[C@@H](O)[C@H](C)C(=O)N[C@H](C(=O)NCCc1nc(-c2nc(C(=O)NCCCNCCCCNCCCN)cs2)cs1)[C@@H](C)O | Nucleic Acid | Active |
| Cc1c(N)nc([C@H](CC(N)=O)NC[C@H](N)C(N)=O)nc1C(=O)N[C@@H](Cc1c[nH]cn1)C(=O)N[C@H](Cc1ccccc1Br)[C@@H](O)[C@H](C)C(=O)N[C@H](C(=O)NCCc1nc(-c2nc(C(=O)NCCCNCCCCNCCCN)cs2)cs1)[C@@H](C)O | Nucleic Acid | Active |

====

# System: Nucleic Acid
# procedure.text: Induction of Escherichia coli supercoiled pBR322 DNA cleavage assessed as formation of nicked DNA using bromophenol blue at 1 to 4 uM after 30 mins by agarose gel electrophoresis analysis in presence of equimolar Fe2+
# Format: nucleic-acid assay
The source made the active and inactive calls. No cut-off for these calls is given here.
reported.metric: Activity

| compound | Activity |
| --- | --- |
| Cc1ccccc1C[C@@H](NC(=O)[C@H](Cc1c[nH]cn1)NC(=O)c1nc([C@H](CC(N)=O)NC[C@H](N)C(N)=O)nc(N)c1C)[C@@H](O)[C@H](C)C(=O)N[C@H](C(=O)NCCc1nc(-c2nc(C(=O)NCCCNCCCCNCCCN)cs2)cs1)[C@@H](C)O | Active |
| CC[C@@H](C)C(NC(=O)[C@H](Cc1c[nH]cn1)NC(=O)c1nc([C@H](CC(N)=O)NC[C@H](N)C(N)=O)nc(N)c1C)[C@@H](O)[C@H](C)C(=O)N[C@H](C(=O)NCCc1nc(-c2nc(C(=O)NCCCNCCCCNCCCN)cs2)cs1)[C@@H](C)O (single isomer, unassigned) | Active |
| Cc1c(N)nc([C@H](CC(N)=O)NC[C@H](N)C(N)=O)nc1C(=O)N[C@@H](Cc1c[nH]cn1)C(=O)N[C@H](CC1CCCCC1)[C@@H](O)[C@H](C)C(=O)N[C@H](C(=O)NCCc1nc(-c2nc(C(=O)NCCCNCCCCNCCCN)cs2)cs1)[C@@H](C)O | Active |
| Cc1c(N)nc([C@H](CC(N)=O)NC[C@H](N)C(N)=O)nc1C(=O)N[C@@H](Cc1c[nH]cn1)C(=O)N[C@@H]([C@@H](O)[C@H](C)C(=O)N[C@H](C(=O)NCCc1nc(-c2nc(C(=O)NCCCNCCCCNCCCN)cs2)cs1)[C@@H](C)O)C(C)(C)C | Active |
| Cc1c(N)nc([C@H](CC(N)=O)NC[C@H](N)C(N)=O)nc1C(=O)N[C@@H](Cc1c[nH]cn1)C(=O)N[C@H](Cc1ccccc1)[C@@H](O)[C@H](C)C(=O)N[C@H](C(=O)NCCc1nc(-c2nc(C(=O)NCCCNCCCCNCCCN)cs2)cs1)[C@@H](C)O | Active |

*Q* Which Activity is reported for this compound? Cc1c(N)nc([C@H](CC(N)=O)NC[C@H](N)C(N)=O)nc1C(=O)N[C@@H](Cc1c[nH]cn1)C(=O)N[C@H](C)[C@@H](O)[C@H](C)C(=O)N[C@H](C(=O)NCCc1nc(-c2nc(C(=O)NCCCNCCCCN)cs2)cs1)[C@@H](C)O
*A* Active
